Quick list: Antibacterial zone of inhibition per entry.
test system: Escherichia coli; assay: Antibacterial disc diffusion assay; assay type: cell-based; settings: 37 °C, 24 hours
Reply with the number, then its unit.

// solved cases for Antibacterial zone of inhibition follow
COc1ccc(C(=O)NC(=S)Nc2nc(-c3ccccc3)cc(-c3ccc(Cl)cc3)n2)cc1OC = 6 mm
Cc1ccc(-c2cc(-c3ccccc3)nc(NC(=S)NC(=O)c3ccccc3)n2)cc1 = 7 mm
O=C(NC(=S)Nc1nc(-c2ccccc2)cc(-c2ccc(Cl)cc2)n1)C1CCCCC1 = 7 mm
CO[C@H]1/C=C/O[C@@]2(C)Oc3c(C)c(O)c4c(O)c(c(/C=N/N5CCN(C)CC5)c(O)c4c3C2=O)NC(=O)/C(C)=C\C=C\[C@H](C)[C@H](O)[C@@H](C)[C@@H](O)[C@@H](C)[C@H](OC(C)=O)[C@@H]1C [Rifampin, reference compound] = 17 mm
O=C(NC(=S)Nc1nc(-c2ccccc2)cc(-c2ccc(Br)cc2)n1)c1ccccc1 = 7 mm

[Q] Given O=C(NC(=S)Nc1nc(-c2ccccc2)cc(-c2ccc(Cl)cc2)n1)c1cccc2ccccc12 , state its recorded Antibacterial zone of inhibition.
[A] 6 mm

[Q] // next record O=C(NC(=S)Nc1nc(-c2ccccc2)cc(-c2ccc(F)cc2)n1)c1ccccc1
[A] 6 mm
